system: XF 498 CNS; assay: NCI tumour cell line growth inhibition, 48 h
# binarize TGI: threshold 30 µM inclusive, high side T, low side F

Query string: Has O=C1CSc2cc([N+](=O)[O-])ccc2N1 a recorded TGI greater than or equal to 30 µM?
Result string: T

Query string: Is the recorded value of TGI equal to or greater than 30 µM for this molecule? CCc1cccc(C)c1NC(=O)CC1C(=O)Nc2ccccc2S1(=O)=O (stereo unspecified)
Result string: F

Query string: Could you verify whether the entry Cc1ccc(CCC(=O)C(=O)O)s1 shows TGI of no less than 30 µM?
Result string: T

Query string: Please indicate if the recorded TGI for O=C(CCC(=O)C1CCC/C1=N/O)Nc1ccc(Cl)cc1 (stereo unspecified) meets or exceeds 30 µM.
Result string: T

Query string: Check if TGI >= 30 µM (inclusive). Item: OCCN1CCN(CC/C=C2/c3ccccc3Sc3ccc(Cl)cc32)CC1
Result string: F

Query string: Exam item: decide whether the reported TGI for CN(C)/N=N/c1nc[nH]c1C(N)=O is at least 30 µM.
Result string: T

Query string: API: above_or_equal(metric=TGI, cutoff=30 µM) for item O=NN(CCCl)C(=O)NC1CCC(CC2CCC(NC(=O)N(CCCl)N=O)CC2)CC1 (stereo unspecified)
Result string: F

Query string: Entry COc1ccc(Sc2ccccc2N)cc1 : is its TGI no less than 30 µM?
Result string: T

Query string: hey, is TGI for this one >= 30 µM? O=c1oc2ccccc2c(O)c1C(C/C(CCN1CCCC1)=N\Nc1ccccc1)c1ccccc1 (stereo unspecified)
Result string: T

Query string: Confirm if TGI reported for the molecule COC(=O)c1nn(C(=N)c2ccc(Cl)cc2)c2c1CCC2 is 30 µM or above.
Result string: T

Query string: Does C[C@]12CCC(=O)C=C1CC[C@@H]1C2CC[C@]2(C)c3nn(-c4ccccc4)nc3CC12 (stereo partly specified) have a reported TGI of at least 30 µM?
Result string: T

---

tested on: COLO 205 colon; assay: NCI tumour cell line growth inhibition, 48 h
Please provide measured TGI for the entries that follow.
Reply with just the number (in µM).

Query string: I have this molecule here, Cc1ccc([N+](=O)[O-])c2c(NCC(O)CO)ccnc12 (centres undefined) , and I need its recorded TGI.
Result string: 75.1

Query string: Requested field: TGI. Item: CC1(C)C(=O)/C(=C\c2cccnc2)C[C@]2(C)[C@H]3CC[C@@H]4[C@@H](C(=O)/C=C/c5ccncc5)CC[C@@]4(C)[C@]3(C)CC[C@@H]12
Result string: 3.87

Query string: Need TGI of CC(=O)c1cc(O)c2ccccc2c1O , thanks.
Result string: 34.4

Query string: Need TGI, item N#CCC(=O)N1CCCCCCC1
Result string: 28.9

Query string: Need TGI, item CS(=O)(=O)N(c1cc(-c2ccc3ncnc(Nc4cccc(Cl)c4)c3c2)cnc1Cl)S(C)(=O)=O
Result string: 2.04

Query string: What measured TGI goes with CCCCCCCCCCCCCCCC1=NC(C)(C)CN1C(C)C ?
Result string: 2.83

Query string: # TGI lookup, item C=C1C(=O)O[C@H]2[C@H]1CC/C(COC(=O)NCc1ccc(Cn3c(=O)sn(-c4ccccc4)c3=O)cc1)=C\CC[C@@]1(C)O[C@@H]21
Result string: 3.44

Query string: I would be grateful if you could share the reported TGI for O=Nc1c(-c2c(O)[nH]c3ccc(Br)cc23)[nH]c2ccccc12 .
Result string: 13.9

Query string: For O=c1oc2c(C(F)(F)F)cccc2cc1-c1csc(Nc2ccc(OCCF)cc2)n1 , what is its reported TGI?
Result string: 0.0729
